These entries and their values trace back to the supplement of paper PMC6555819.

System: FXR:RXRa (NR concentration 270 nM, RXRa partner concentration 90 nM)
experiment: PBM binding z-score (relative to random genomic background probes); higher = stronger binding; sequences stand for … in GC…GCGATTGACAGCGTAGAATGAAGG
Listed next: entries and their corresponding PBM binding z-score.
Respond using a number only.

In the examples that follow, each entry is paired with its recorded PBM binding z-score.
• TCTGCTAGGTCAGTTGTTCAGCTAACGAGCTGCC = 0.697
• CCTACTGGGCCATCAGGTCATTGTTATCAACGTT = 1.46
• GGAACGAGGGCAAGGTGATAGCAGAGTTTGATGG = 0.873
• CAAACTAGGTCACCAAAGGTCAAAGTCGAATGAC = 7.53
• CGTTAAAGTTCAAGGTAACGTAACAGAAAGCAGC = 6.06
• CCTCGGAGGACAGAAGGTCAGACCTGTCCGCTTT = 1.44
• CCAGACAGGTGAAAGATAACTCAGTCTGGTACGC = -0.034
• TCATATAGGTAAACAGGTGAAAGTCCGTAAGTTA = 0.771

Query string: Look up PBM binding z-score: GCTAGTAGGCCATTTGGGTCACTCAATGACGGGC
Result string: -0.0419

Query string: Next entry: TAGCCTAGGTCATGCGGTCCAGTATAGTGTCGGC
Result string: 4.09

Query string: Next entry: GCCAGCAGGCCATTTGGGTCACTCAATGACGGGC
Result string: 0.0652

Query string: Next entry: TCATATAGGTAAATGCTAGGTGAAAGCCCGATCT
Result string: 0.778

Query string: Next entry: AGTCAAAGTTCAGGAGGAGGTAACGTAAAGCACG
Result string: 4.22

Query string: Next entry: TCTTGTAGATCAATAGAGGTGAAGAAAGTGCGCT
Result string: 1.02

Query string: Next entry: GCTGCTAGGTCAACTGATGGTCAGCTTAAGCTCG
Result string: 4.41

Query string: Next entry: CCTATTAGTTGACCATAAGGGGAACCGAAGCTCG
Result string: 0.142

Query string: Next entry: ACTAGCAGGCCAAGTTTGGGTCAGTCAAACAAAG
Result string: 0.028

Query string: Next entry: CGTCCAAGCTCATAGGAGGTCAGTGAAGACAGAT
Result string: 0.888

Query string: Next entry: CCGACTGGGACAAGGTTACCATAACGCACAGCCA
Result string: 0.29

Query string: Next entry: TCAGACAGGTGAAGGTCACTCAGGTACGCAGTCG
Result string: 3.13

Query string: Next entry: TCATATAGGTAAATGTTAGGTGAAAGTCCGATCT
Result string: 1.64

Query string: Next entry: ATATGTAGGTTATCGGGTCATGCAGTTTGCGCAT
Result string: 2.87

Query string: Next entry: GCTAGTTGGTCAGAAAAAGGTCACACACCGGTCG
Result string: 2.95

---

Test system: LXRb homodimer (NR concentration 270 nM)
experiment: PBM binding z-score (relative to random genomic background probes); higher = stronger binding; sequences stand for … in GC…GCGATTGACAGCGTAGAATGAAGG
Listed next: entries and their corresponding PBM binding z-score.
Respond using a number only.

Query string: Provide the documented PBM binding z-score with LXRb homodimer (NR concentration 270 nM) as the system for CCTAGTTGGTCAAGTTCACACACGCTATAGGTAC
Result string: 0.695

Query string: Next entry: ACAGACAGGTGAGTAAAGGTAACTCAGCTGGACG
Result string: -0.506

Query string: Next entry: CCAGACTGGTGAGAAGGTAACTCAGCCTCGATTA
Result string: -0.739

Query string: Next entry: CAAACTAGGTCACAGAGGTCAAAGTCCGTGCGTA
Result string: 2.21

Query string: Next entry: CCTACTGGGCCACGAGAGGTCATTGATTCAGTGA
Result string: 0.302

---

Test system: RARa homodimer (NR concentration 270 nM)
experiment: PBM binding z-score (relative to random genomic background probes); higher = stronger binding; sequences stand for … in GC…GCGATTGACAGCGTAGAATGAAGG
measured_property: PBM binding z-score
Respond using a number only.

In the examples that follow, each entry is paired with its recorded PBM binding z-score.
- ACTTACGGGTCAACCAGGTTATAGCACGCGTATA: 1.57
- CTCGAAAGTTCGGTTGAGGTGAGTATACGGATAA: -0.11
- ACTTACGGGTGAACGAGGTTATAGCACGCGTATA: 0.821
- CCAGACAGGTGAAAGGCAACTCAGTCTGGTACGC: 0.0834
- TCTAGTTAGTCACGGAGGTCACACACGACGGGTA: 1.62

Query string: Look up PBM binding z-score: CGTCCAAGGTCAGCAGGTCAGTGACAGCGACGTG
Result string: 2.42

Query string: Next entry: CGAACTAGGTCATTGACAGGACAGTGAATAGTAA
Result string: 0.499

---

Tested on: PPARg:RXRa IVT, anti-PPARg (NR concentration 270 nM, RXRa partner concentration 90 nM)
experiment: PBM binding z-score (relative to random genomic background probes); higher = stronger binding; sequences stand for … in GC…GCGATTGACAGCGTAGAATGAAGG
Use TRUE when the recorded PBM binding z-score is no lower than 1; use FALSE when it is lower.

Use these answered entries as a reference point.
- TCTAGGAGGCCAGAGGGTCACTCAAGAGGTACGG: TRUE
- CTACCAAGGTGAACAAAGTCGTTGATTACTATTC: TRUE
- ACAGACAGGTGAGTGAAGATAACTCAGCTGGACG: FALSE
- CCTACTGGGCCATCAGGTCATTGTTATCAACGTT: TRUE
- CCTACTGGGCCATTAGGTCATTGATATCAACGTT: TRUE
- TTACCAAGTTGAGCTGAGGTCGTTGATCCAACTC: FALSE
- TCTTGTAGATCAGCAGGTTAGGAAAGCTGGCCAA: FALSE
- AGTAGTTGGTCAGCTGAGGTCACACACAATTCGG: TRUE
- CCTAGCAGGACAATCTGGGTCACTCAAGGCTTGA: TRUE
- CAAACTTGGTCAAGAGGTCAAAGTCCGCTTCCCG: TRUE

Query string: Decide: is the reported value of PBM binding z-score for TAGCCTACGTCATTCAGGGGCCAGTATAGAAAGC equal to or greater than 1?
Result string: FALSE

Query string: Next entry: CAAACTAGGGCACGAAAGGTCAAAGTCGAATGAC
Result string: TRUE

Query string: Next entry: AGTCAAAGTTCGGGACGAGGTAACGTAAAGCACG
Result string: FALSE

Query string: Next entry: CTACCAAGGAGAACAAGGTCGTTGATTACTATTC
Result string: FALSE

Query string: Next entry: TAATATAGGTAAACAGGTGAAAGTCCGTAAGTTA
Result string: TRUE

Query string: Next entry: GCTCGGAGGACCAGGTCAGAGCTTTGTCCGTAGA
Result string: FALSE

Query string: Next entry: CAAACTAGGTCAAGTTCAAAGTCGGTTTGTGCCA
Result string: TRUE

Query string: Next entry: CCGACTGGGGCAAGGGTACCATAACGCACAGCCA
Result string: TRUE

Query string: Next entry: TAGTCTAGGTCATGCGGGCCAGTATAGTGTCGGC
Result string: TRUE

Query string: Next entry: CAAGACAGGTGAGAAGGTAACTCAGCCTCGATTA
Result string: TRUE

Query string: Next entry: TCTAACAGGCCAGAGGGTCACTCAAGAGGTACGG
Result string: FALSE

---

Listed next: entries and their corresponding PBM binding z-score.
Tested on: PPARg:RXRa (NR concentration 180 nM, RXRa partner concentration 90 nM)
experiment: PBM binding z-score (relative to random genomic background probes); higher = stronger binding; sequences stand for … in GC…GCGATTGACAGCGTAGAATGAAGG
Respond using a number only.

Query string: Look up PBM binding z-score: AGATCGAGGGCAATGAGTTGATAGCACGGGTGGC
Result string: 1.16

Query string: Next entry: CCGACTGGGGCAGAAAGGTTACAATACCATCCGG
Result string: 1.77

Query string: Next entry: GCATATATGTAATACAAGGTGAAAGTCCGATTGT
Result string: 1.35

Query string: Next entry: GCTGCTAGGTCAGGTTGGTCAGCAAACGGGTACG
Result string: 0.5

Query string: Next entry: TCTAGTTGGTAACGGAGGTCACACACGACGGGTA
Result string: 2.37

Query string: Next entry: TCTTGTAGATCAACAGGAGGTTAACAAAGATCGA
Result string: 0.373

Query string: Next entry: CATCCTAGGTCAGGGCCAGTATAGGAGGAACGTT
Result string: 1.89

Query string: Next entry: AGTCAAAGTTCACTAGGTAACGTGAGATTCAGCT
Result string: 7.14

Query string: Next entry: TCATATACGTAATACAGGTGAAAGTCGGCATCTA
Result string: 1.26

Query string: Next entry: AATACAGGGGCATCGTAGGCCAGAGTACGCACAG
Result string: 1.13

Query string: Next entry: ACTAGCAGGCCAAGTTTGGGTCACTCTAACAAAG
Result string: -0.172

Query string: Next entry: ACAGACAGGTGATGAAGGTCACTCAGGCTATCAT
Result string: 1.62

Query string: Next entry: CGTCAAAGTTCGACTAAGGTAACGTAAAGCACGC
Result string: 1.33

Query string: Next entry: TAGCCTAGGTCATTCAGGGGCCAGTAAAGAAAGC
Result string: 1.61

Query string: Next entry: GATACAGGGTCAGCTAGCGGCCAGAGTATGGAAA
Result string: 3.77

Query string: Next entry: CGAACGAGAGCATGAGTTGATAGCAAATGCCGAT
Result string: 0.777

Query string: Next entry: CCTAGCAGGCCTGGGTCACTCAAGCATTTCGCTT
Result string: -0.336

Query string: Next entry: CAAACTAGGTCATTGACAGGACAGTGAATAGTAA
Result string: 7.82

Query string: Next entry: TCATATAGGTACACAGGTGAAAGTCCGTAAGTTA
Result string: 2.32

Query string: Next entry: CAAACTAGGTCAAGAGGTCAAAATCCGCTTCCCG
Result string: 9.69

Query string: Next entry: CCGACTGGCGCAGAAAGGTTACCATACCATCCGG
Result string: 0.613

Query string: Next entry: ATATGTAGGTGATCGGGTCATTCAGTTTGCGCAT
Result string: 6.45
